# system name: Mu-type opioid receptor (Rattus norvegicus, UniProt P33535)
# Sequence (P33535 whole entry): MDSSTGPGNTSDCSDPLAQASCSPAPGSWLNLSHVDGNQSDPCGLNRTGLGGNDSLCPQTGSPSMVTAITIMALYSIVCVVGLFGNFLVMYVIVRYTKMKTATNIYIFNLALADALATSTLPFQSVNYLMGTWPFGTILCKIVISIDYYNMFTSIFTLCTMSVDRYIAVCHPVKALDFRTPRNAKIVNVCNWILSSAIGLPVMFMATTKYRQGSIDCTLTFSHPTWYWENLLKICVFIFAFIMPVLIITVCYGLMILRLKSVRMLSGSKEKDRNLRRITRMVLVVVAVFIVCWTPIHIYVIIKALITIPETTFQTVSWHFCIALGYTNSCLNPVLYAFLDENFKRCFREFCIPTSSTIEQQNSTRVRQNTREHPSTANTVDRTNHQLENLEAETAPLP
# method notes: Agonist activity at mu opioid receptor in rat brain membrane by [35S]GTPgammaS binding assay
Reported EC50 by item:
Write the value in nM as a bare number.

Some compounds with known EC50 results, for comparison:
[[record]]
compound = "C[C@@H](c1ccccc1)[C@H](NC(=O)[C@H](Cc1c[nH]c2ccccc12)NC(=O)[C@H]1CCCC[C@H]1NC(=O)[C@@H](N)Cc1ccc(O)cc1)C(N)=O"
measured = 264

[[record]]
compound = "Cc1cc(CC(N)C(=O)N[C@@H]2CCCC[C@@H]2C(=O)N[C@@H](Cc2ccccc2)C(=O)N[C@H](C(N)=O)[C@@H](C)c2ccccc2)cc(C)c1O (stereo not given in full)"
measured = 17

[[record]]
compound = "Cc1cc(CC(N)C(=O)N[C@@H]2CCCC[C@@H]2C(=O)N[C@@H](Cc2c[nH]c3ccccc23)C(=O)N[C@H](C(N)=O)[C@@H](C)c2ccccc2)cc(C)c1O (stereo not given in full)"
measured = 22.1

[[record]]
compound = "Cc1cc(CC(N)C(=O)N[C@@H]2CCCC[C@@H]2C(=O)N[C@@H](Cc2c[nH]c3ccccc23)C(=O)NC(Cc2ccc(F)cc2)C(N)=O)cc(C)c1O (stereo not given in full)"
measured = 8.1


Field: next compound
Suppose we examine the compound NC(=O)C(Cc1ccc(F)cc1)NC(=O)[C@H](Cc1c[nH]c2ccccc12)NC(=O)[C@H]1CCCC[C@H]1NC(=O)[C@@H](N)Cc1ccc(O)cc1 (stereo not given in full) ; what EC50 value has been reported?
380

###

Reported Ratio Ki by item:
# Species: Rattus norvegicus
# method notes: Selectivity ratio of Ki for delta opioid receptor in rat brain to mu opioid receptor in rat brain
# Assay type: tissue-based

Some compounds with known Ratio Ki results, for comparison:
[[record]]
compound = "NC(=O)C(Cc1ccc(F)cc1)NC(=O)[C@H](Cc1c[nH]c2ccccc12)NC(=O)[C@@H]1CCCC[C@@H]1NC(=O)[C@@H](N)Cc1ccc(O)cc1 (stereo partly specified)"
reported_metric = "Ratio Ki"
measured = 54

[[record]]
compound = "Cc1cc(CC(N)C(=O)N[C@@H]2CCCC[C@@H]2C(=O)N[C@@H](Cc2ccccc2)C(=O)N[C@@H](C(N)=O)[C@H](C)c2ccccc2)cc(C)c1O (stereo partly specified)"
reported_metric = "Ratio Ki"
measured = 20

[[record]]
compound = "Cc1cc(CC(N)C(=O)N[C@@H]2CCCC[C@@H]2C(=O)N[C@@H](Cc2c[nH]c3ccccc23)C(=O)N[C@@H](C(N)=O)[C@H](C)c2ccccc2)cc(C)c1O (stereo partly specified)"
reported_metric = "Ratio Ki"
measured = 69

[[record]]
compound = "Cc1cc(CC(N)C(=O)N[C@@H]2CCCC[C@@H]2C(=O)N[C@@H](Cc2c[nH]c3ccccc23)C(=O)N[C@H](C(N)=O)[C@@H](C)c2ccccc2)cc(C)c1O (stereo partly specified)"
reported_metric = "Ratio Ki"
measured = 132

[[record]]
compound = "Cc1cc(CC(N)C(=O)N[C@@H]2CCCC[C@@H]2C(=O)N[C@@H](Cc2ccccc2)C(=O)N[C@H](C(N)=O)[C@@H](C)c2ccccc2)cc(C)c1O (stereo partly specified)"
reported_metric = "Ratio Ki"
measured = 302


Field: next compound
Suppose we examine the compound `C[C@H](c1ccccc1)[C@@H](NC(=O)[C@H](Cc1c[nH]c2ccccc12)NC(=O)[C@H]1CCCC[C@H]1NC(=O)[C@@H](N)Cc1ccc(O)cc1)C(N)=O` ; what Ratio Ki value has been reported?
97

###

# system name: Delta-type opioid receptor (Rattus norvegicus, UniProt P33533)
# Sequence (P33533 whole entry): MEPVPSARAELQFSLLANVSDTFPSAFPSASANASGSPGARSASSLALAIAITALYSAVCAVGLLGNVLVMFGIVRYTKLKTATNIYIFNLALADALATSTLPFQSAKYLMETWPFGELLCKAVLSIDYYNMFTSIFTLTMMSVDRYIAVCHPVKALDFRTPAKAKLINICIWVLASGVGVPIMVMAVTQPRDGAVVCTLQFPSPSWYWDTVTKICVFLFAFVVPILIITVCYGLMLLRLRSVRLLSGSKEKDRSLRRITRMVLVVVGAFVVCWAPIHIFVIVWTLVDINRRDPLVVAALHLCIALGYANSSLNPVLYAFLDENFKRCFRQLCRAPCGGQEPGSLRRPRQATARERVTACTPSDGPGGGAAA
# method notes: Displacement of [3H][Ile5,6]deltorphin2 from delta opioid receptor in rat brain membrane homogenate by liquid scintillation counting
pKi: −log10 of the molar value.
Each entry gets criterion not met if its pKi stays under 6, and criterion met if its pKi is 6 or above.

The following compounds have reported results that may help.
[[record]]
compound = "NC(=O)C(Cc1ccc(F)cc1)NC(=O)[C@H](Cc1c[nH]c2ccccc12)NC(=O)[C@H]1CCCC[C@H]1NC(=O)[C@@H](N)Cc1ccc(O)cc1 (some centres undefined)"
system_name = "Delta-type opioid receptor (Rattus norvegicus, UniProt P33533)"
assigned_category = "criterion met"

[[record]]
compound = "NC(=O)C(Cc1ccc(F)cc1)NC(=O)[C@H](Cc1ccccc1)NC(=O)[C@H]1CCCC[C@H]1NC(=O)[C@@H](N)Cc1ccc(O)cc1 (some centres undefined)"
system_name = "Delta-type opioid receptor (Rattus norvegicus, UniProt P33533)"
assigned_category = "criterion met"

[[record]]
compound = "Cc1cc(CC(N)C(=O)N[C@@H]2CCCC[C@@H]2C(=O)N[C@@H](Cc2ccccc2)C(=O)N[C@H](C(N)=O)[C@@H](C)c2ccccc2)cc(C)c1O (some centres undefined)"
system_name = "Delta-type opioid receptor (Rattus norvegicus, UniProt P33533)"
assigned_category = "criterion met"

[[record]]
compound = "Cc1cc(CC(N)C(=O)N[C@@H]2CCCC[C@@H]2C(=O)N[C@@H](Cc2ccccc2)C(=O)NC(Cc2ccc(F)cc2)C(N)=O)cc(C)c1O (some centres undefined)"
system_name = "Delta-type opioid receptor (Rattus norvegicus, UniProt P33533)"
assigned_category = "criterion met"

[[record]]
compound = "Cc1cc(CC(N)C(=O)N[C@@H]2CCCC[C@@H]2C(=O)N[C@@H](Cc2c[nH]c3ccccc23)C(=O)N[C@H](C(N)=O)[C@@H](C)c2ccccc2)cc(C)c1O (some centres undefined)"
system_name = "Delta-type opioid receptor (Rattus norvegicus, UniProt P33533)"
assigned_category = "criterion met"

[[record]]
compound = "C[C@H](c1ccccc1)[C@@H](NC(=O)[C@H](Cc1c[nH]c2ccccc12)NC(=O)[C@H]1CCCC[C@H]1NC(=O)[C@@H](N)Cc1ccc(O)cc1)C(N)=O"
system_name = "Delta-type opioid receptor (Rattus norvegicus, UniProt P33533)"
assigned_category = "criterion not met"

[[record]]
compound = "Cc1cc(CC(N)C(=O)N[C@@H]2CCCC[C@@H]2C(=O)N[C@@H](Cc2c[nH]c3ccccc23)C(=O)N[C@@H](C(N)=O)[C@H](C)c2ccccc2)cc(C)c1O (some centres undefined)"
system_name = "Delta-type opioid receptor (Rattus norvegicus, UniProt P33533)"
assigned_category = "criterion met"

[[record]]
compound = "Cc1cc(CC(N)C(=O)N[C@@H]2CCCC[C@@H]2C(=O)N[C@@H](Cc2ccccc2)C(=O)N[C@@H](C(N)=O)[C@H](C)c2ccccc2)cc(C)c1O (some centres undefined)"
system_name = "Delta-type opioid receptor (Rattus norvegicus, UniProt P33533)"
assigned_category = "criterion met"

[[record]]
compound = "Cc1cc(CC(N)C(=O)N[C@@H]2CCCC[C@@H]2C(=O)N[C@@H](Cc2c[nH]c3ccccc23)C(=O)NC(Cc2ccc(F)cc2)C(N)=O)cc(C)c1O (some centres undefined)"
system_name = "Delta-type opioid receptor (Rattus norvegicus, UniProt P33533)"
assigned_category = "criterion not met"


Kindly determine if pKi recorded for NC(=O)C(Cc1ccc(F)cc1)NC(=O)[C@H](Cc1c[nH]c2ccccc12)NC(=O)[C@@H]1CCCC[C@@H]1NC(=O)[C@@H](N)Cc1ccc(O)cc1 (some centres undefined) is above or exactly 6.
criterion not met

###

Reported Emax by item:
# system name: Mu-type opioid receptor (Rattus norvegicus)
# method notes: Agonist activity at opioid receptor in mu rat brain membrane by [35S]GTPgammaS binding assay relative to baseline in presence of opioid-selective antagonist naloxone
# Format: functional, cell membranes
Write the value in % as a bare number.

Some compounds with known Emax results, for comparison:
[[record]]
compound = "NC(=O)C(Cc1ccc(F)cc1)NC(=O)[C@H](Cc1c[nH]c2ccccc12)NC(=O)[C@H]1CCCC[C@H]1NC(=O)[C@@H](N)Cc1ccc(O)cc1 (stereo partly drawn)"
reported_metric = "Emax"
unit_string = "%"
measured = 125

[[record]]
compound = "Cc1cc(CC(N)C(=O)N[C@@H]2CCCC[C@@H]2C(=O)N[C@@H](Cc2c[nH]c3ccccc23)C(=O)N[C@H](C(N)=O)[C@@H](C)c2ccccc2)cc(C)c1O (stereo partly drawn)"
reported_metric = "Emax"
unit_string = "%"
measured = 145

[[record]]
compound = "NC(=O)[C@H](Cc1ccccc1)NC(=O)[C@H](Cc1c[nH]c2ccccc12)NC(=O)[C@@H]1CCCN1C(=O)[C@@H](N)Cc1ccc(O)cc1 [ENDOMORPHIN-1]"
reported_metric = "Emax"
unit_string = "%"
measured = 124


Suppose we examine the compound Cc1cc(CC(N)C(=O)N[C@@H]2CCCC[C@@H]2C(=O)N[C@@H](Cc2c[nH]c3ccccc23)C(=O)NC(Cc2ccc(F)cc2)C(N)=O)cc(C)c1O (stereo partly drawn) ; what Emax value has been reported?
127

Suppose we examine the compound `C[C@@H](c1ccccc1)[C@H](NC(=O)[C@H](Cc1c[nH]c2ccccc12)NC(=O)[C@H]1CCCC[C@H]1NC(=O)[C@@H](N)Cc1ccc(O)cc1)C(N)=O` ; what Emax value has been reported?
130

Suppose we examine the compound NC(=O)[C@H](Cc1ccccc1)NC(=O)[C@H](Cc1ccccc1)NC(=O)[C@@H]1CCCN1C(=O)[C@@H](N)Cc1ccc(O)cc1 [ENDOMORPHIN 2] ; what Emax value has been reported?
123

Suppose we examine the compound `C[C@@H](NC(=O)[C@@H](N)Cc1ccc(O)cc1)C(=O)NCC(=O)N(C)[C@@H](Cc1ccccc1)C(=O)NCCO` ; what Emax value has been reported?
119

Suppose we examine the compound Cc1cc(CC(N)C(=O)N[C@@H]2CCCC[C@@H]2C(=O)N[C@@H](Cc2ccccc2)C(=O)N[C@H](C(N)=O)[C@@H](C)c2ccccc2)cc(C)c1O (stereo partly drawn) ; what Emax value has been reported?
146
